Origin of the recorded values: PubChem BioAssay (NCI)

# growth per entry
Tested on: COLO 205 colon
Assay: NCI-60 one-dose screen, 48 h (100 = growth as untreated, 0 = no growth, -100 = all killed)
Conditions: 10 µM unless noted
About 83,000 compounds went through this panel and 20% of them were active in at least one assay; those are over-represented in the sample as a whole. Calls of active or inactive are those of the source. Rule for the calls: active = growth percent below 10; inactive = the rest.
property: growth

[
  {
    "compound": "COc1ccc(C(=O)Cn2c(C(=O)c3ccc(Cl)cc3)nc3ccccc32)cc1",
    "observed_measurement": "111% (inactive)"
  },
  {
    "compound": "CC1C(/C=N/NC(N)=S)C(C#N)(C#N)C1(C#N)C#N (centres undefined)",
    "observed_measurement": "115% (inactive)"
  },
  {
    "compound": "NS(=O)(=O)c1ccc(C(=O)NN2C(=O)c3c(Br)c(Br)c(Br)c(Br)c3C2=O)cc1",
    "observed_measurement": "112% (inactive)"
  },
  {
    "compound": "Cc1nn(-c2cc(NC3CCC(O)CC3)c3c(=O)[nH]c(CCC(F)(F)F)cc3c2)c2c1C(=O)CC(C)(C)C2 (centres undefined)",
    "observed_measurement": "36.9% (inactive)"
  },
  {
    "compound": "Cn1c(=O)c2[nH]c(SCC(=O)Nc3ccc(C(=O)/C=C/c4ccccc4Cl)cc3)nc2n(C)c1=O",
    "observed_measurement": "117% (inactive)"
  },
  {
    "compound": "COc1cc2c(cc1OCCCCN1CCN(C(=S)SCCC(C#N)(c3ccccc3)c3ccccc3)CC1)N=C[C@@H]1CCCN1C2=O",
    "observed_measurement": "-7.95% (active)"
  },
  {
    "compound": "CN1CCN(Cc2ccc(NC(=O)c3cncc(C#Cc4cnc(N)c5ccc(F)cc45)c3)cc2C(F)(F)F)CC1",
    "observed_measurement": "-25.7% (active)"
  },
  {
    "compound": "O=C(/C=C/c1ccc(Oc2ccc(Br)cc2)cc1)c1ccc(Br)cc1",
    "observed_measurement": "113% (inactive)"
  },
  {
    "compound": "CCOC(=O)c1c(C)nc2ccccc2c1/C=C/c1cccs1",
    "observed_measurement": "84.5% (inactive)"
  }
]

----------
System: PC-3 prostate
Assay: NCI-60 one-dose screen, 48 h
Conditions: 10 µM unless noted
About 83,000 compounds went through this panel and 20% of them were active in at least one assay; those are over-represented in the sample as a whole. Active and inactive are the calls of the source. Rule for the calls: active = growth percent below 10; inactive = the rest.
Classes used: active, inactive

[
  {
    "molecule": "CN(C)CCCC1(c2ccc(F)cc2)OCc2cc(-c3ccc4cc[nH]c4c3)ccc21 (stereo unspecified)",
    "assigned_label": "inactive"
  },
  {
    "molecule": "O=C1c2cccc3cccc(c23)C(=O)N1C/C=C/c1ccc2c3c(cccc13)C(=O)N(CCO)C2=O",
    "assigned_label": "inactive"
  },
  {
    "molecule": "O=C(Nc1ncc(Cc2ccccc2)s1)c1ccc2c(c1)OCCCO2",
    "assigned_label": "inactive"
  },
  {
    "molecule": "COc1ccc(C[n+]2c3ccccc3n3c4ccc(N)cc4ccc32)c(OC)c1OC",
    "assigned_label": "inactive"
  },
  {
    "molecule": "CCN(CC)CCCN1C(=O)c2c(c(C)c3c(oc4ccc(OC)cc43)c2C)C1=O",
    "assigned_label": "inactive"
  },
  {
    "molecule": "O=[N+]([O-])c1ccc(-c2cn3nc(-c4c[nH]c5ccccc45)sc3n2)cc1",
    "assigned_label": "inactive"
  },
  {
    "molecule": "COc1cc(OC)c(C(=O)C(CN(C)C)CN(C)C)cc1OC",
    "assigned_label": "inactive"
  },
  {
    "molecule": "CC(=O)c1sc2sc(C(C)=O)c(C)c2c1C",
    "assigned_label": "inactive"
  },
  {
    "molecule": "COc1cccc(NCc2nnc(Nc3ccc(Cl)cc3)c3ccccc23)c1",
    "assigned_label": "active"
  },
  {
    "molecule": "CC(C)=CCNc1ncnc2c1ncn2C1OC(CO)C(O)C1O (stereo unspecified)",
    "assigned_label": "active"
  },
  {
    "molecule": "Cc1nc2cc(O)c(O)cc2cc1Oc1ccc(NC(=O)Nc2ccc(Cl)c(Cl)c2)cc1",
    "assigned_label": "inactive"
  },
  {
    "molecule": "COC(=O)CC[C@@H]1O[C@@H](c2ccc(F)cc2)[C@@H](O)[C@H]1O",
    "assigned_label": "inactive"
  },
  {
    "molecule": "CCOC(=O)c1[nH]c2c(c1C)-c1[nH]c(=O)c(S(=O)(=O)c3ccccc3)cc1SC2",
    "assigned_label": "active"
  },
  {
    "molecule": "C=CCC(CCCC)(C(=O)OCC)C(=O)OCC",
    "assigned_label": "inactive"
  },
  {
    "molecule": "O=S(=O)(NCCNc1nccc(-c2c(-c3ccc(F)c(O)c3)nc3sccn23)n1)c1ccc(F)cc1",
    "assigned_label": "inactive"
  },
  {
    "molecule": "c1nc2ccc(-c3cc4ccc5[nH]ncc5c4c4c3CCCC4)cc2[nH]1",
    "assigned_label": "inactive"
  },
  {
    "molecule": "Cc1ccc2c(=O)cc(C(=O)Nc3sc4c(c3C(=O)NCc3cccnc3)CCCC4)oc2c1C",
    "assigned_label": "inactive"
  },
  {
    "molecule": "CCN1CCN(c2cc(C)nc(N(CCNc3ccnc4cc(Cl)ccc34)Cc3ccc4c(c3)OCO4)n2)CC1",
    "assigned_label": "inactive"
  },
  {
    "molecule": "COc1ccc(C2=CC(c3cc(OC)c(OC)c(OC)c3)n3ncnc3N2)cc1 (stereo unspecified)",
    "assigned_label": "inactive"
  },
  {
    "molecule": "Cc1cn(-c2cc(NC(=O)c3cncc(C#Cc4c(N)ncc5ccc(F)cc45)c3)cc(C(F)(F)F)c2)cn1",
    "assigned_label": "inactive"
  },
  {
    "molecule": "N=C(N)c1ccc(-c2ccc(-c3ccccc3)s2)cc1",
    "assigned_label": "inactive"
  }
]
